Source: paper PMC3050579

study system: Ube2g2:G2BRΔN
run description: NMR titration of Ube2g2:G2BRΔN complex with gp78 RING finger
Assay type: binding
condition: Ube2g2 in presence of G2BRΔN, 50 mM Tris, 2 mM TCEP, pH 7.5, 25°C
property label: pKd
One number for each entry, as −log10 of the molar value.

stdin: What value of measured pKd is listed for gp78 RING finger (aa 313-380) (domain or fragment, human, UniProt Q9UKV5 313-380, looked up) KNYLRVVGNMEARFAVATPEELAVNNDDCAICWDSMQAARKLPCGHLFHNSCLRSWLEQDTSCPTCRM ?
stdout: 4.54
